assay_info: yeast display, Sf9 membrane polyspecificity reagent, FACS + sequencing; frameworks hold sequencing errors
measured_attribute: polyreactivity (PSR sort gate)

Recorded polyreactivity (PSR sort gate), per entry:
QVQLVESGGGLVQAGGSLRLSCAASGYIFYFYAMGWYRQAPGKERELVAAISSSGGSTRYADSVKGRFTISRDNAKNTVYLQMNSLKPEDTAVYYCAASHWSGAAWYYYWGQGTQVTVSS    high polyreactivity
QVQLVESGGGLVQAGGSLRLSCAASGLIFLYAMGWYRQAPGKERELVAAISNGGSTYYADSVKGRFTISRDNAKNTVYLQMYSLKPEDTAVYYCAVYYPGKYGYWGQGTQVTVSS    high polyreactivity
QVQHVESGGGIDQAGGSLRLSCAASGSTSVQYAMGWYRQATGKERELVAAISLSVGSTYYADSVKGRFTISRDNAKITVYLQMNCLKPEDTAVYYCASGYPPEDPEDYWGQGTQVTVSS    low polyreactivity
QVQLVESGGGLVQAGGSLRLSCAPSGRTLIHYAMGWSRQAPGKEREFVATINIGGRTYADSVKGRFTISRDNAKTTVYLQMNSLKPEDSAVYYCDADHRYSARRSFPTLYDYWAQGTQVTVSS    low polyreactivity

Proceed to the following item.
// recorded polyreactivity (PSR sort gate) for QVQLVESGGGLVQAGGSLRLSCAASGRIFPSNAMGWYRQAPGKERELVAAISVSGGSTYYADSVKGRFTISRDNAKNTVYLQMNSLKPEDTAVYYCAVRAWDPYTGKSDYWGQGTQVTVSS : low polyreactivity

----------
assay_info: yeast display, Sf9 membrane polyspecificity reagent, FACS + sequencing; frameworks hold sequencing errors
measured_attribute: polyreactivity (PSR sort gate)

In the examples that follow, each entry is paired with its recorded polyreactivity (PSR sort gate).
QVQLVESGGGLVQAVGSLRLSCAASGLIFKKYAMGWYRQAPGKERELVATITSRGGSTYYADSVKGRFTISRDNAKNTVYLQMNSLKPEDTAVYYCAARFGFYTAYTYNYWGQGTQVTVSS    high polyreactivity
QVQLVESGGGLVQAGGSLRLSCAASGRTLASNAMGWYRQAPGKERELVAAINRGGSTYYADSVKGRFTISRDNAKNTVYLQMNSLKPEETAVYYCAVDRYRYPFDYWGQGTQVTVSS    low polyreactivity
QVQLVESGGGLVQAGGSLRLSCAASGSTLRSYVMGWYRQAPGKERELVAAISIRGDSTYYADSVKGRFTISRDNAKNTVYLQMNSLKPEDTAVYYCAAASNRYPNSWYYYWGQGTQVTVSS    high polyreactivity
QVQLVESGGGLVQAGGSLRLTCAASGSTFDLNAMGWYRQSPGKERELVARISSVGSTNYADSVKGRFTISRDNAKNSVYLQMNSLKPEDTAVYYCNAGFWDLYDYWGQGTQVTVSS    low polyreactivity

So for QVQLVESGGGLVQAGGSLRLSCAASGRIFGGNAMGWYRPAPGKERELVAAISKRGGSTYYADSVKGRFTISRDNAKNTVYLQMNSLKPEDSAVYYCAATAYADQGLDYGYWGQGTQVTVSS , the logged polyreactivity (PSR sort gate) turned out to be high polyreactivity

The recorded polyreactivity (PSR sort gate) for QVQHVESGGGLVQAGGSRRLSCAASGRTFREYAMGWYRQAPGKERELVAAISDSGDSTYYADSVKGRFTISRDNAKNTVNLQMNSLKPVHTAVYYCAADYYDYEYDYWGQGTQVTVSS is low polyreactivity

Consider QVQLVESGGGLVQAGGSLRLSCAASGSTFYGKAMGWYRQAPGKERELVDTISWSGGSTYYADSVKGRFTISRDNAKNTVYLQMNSVKPEDTAVYYCNAEITTKSLVTRYSWYGGDYWRQGTQVTVSS . Its measured polyreactivity (PSR sort gate) is low polyreactivity

polyreactivity (PSR sort gate) recorded for this sequence, QVQLVESGGGLVQAGGSLRLSCAASGLTFSGNTMGWYRQAPGKVRELVAAISSDGSTNYADSVKGRFTISRDNAKNTVYLQMNSLKPEDTAVYYCNARVRYYFAFWRDYWGQGTQVTVSS , is low polyreactivity

# polyreactivity (PSR sort gate) (sequence: QVQLEESVGGLVQAGGSLRLTCAASGSTLSYYSMGWYRQAPGKERELVARITRSGGRTYYADSVKGRFTISRDNEKNTVYLQINSLKPEDTGVYYCNKVAYYSRRMDYWGQGTLVTVSS ) is high polyreactivity

Form: sequence = QVQRVESGGGLVQAGGSLRLSSAASGSIFFDYAMRGYRQAPGNERELVAAISGSGGSRYYADSVKGRFTISRDNAKNTVYLQMNSLIPEDTAVYYCAAGYKYFRIRYDYWGQGTQVTVSS ; polyreactivity (PSR sort gate) = high polyreactivity

Sure, the documented polyreactivity (PSR sort gate) for QVQLVESGGGLVQAGGSLRLSCAPSGSIFGGYAMGWYRQAPGKERELVAGITYSGDSTYYADSVKGRFTISRDNAKYTVYLQMNSLKPEDTAVYYCNADQRVDHDDFDYWGQGTQVTVSS is low polyreactivity

Just so you know, measured polyreactivity (PSR sort gate) for QVQLVESGGGLVQAGGSLRLICAASGFIFFINDMGWYRQAPGKERELVAAISWSCGSTYYADSVKGRFTISRDNAKNTVYLQMNSLKPEDTAVYYCNTDVPTAQYDYWGQGTQVTVSS came out at low polyreactivity

Recorded polyreactivity (PSR sort gate) (sequence QVQLVESGGGLVQAGGSLRLSCAASGSTFSSYAMGWYRQAPGKERELVAAINWSGGRTYYADSVKGRFTISRDNAKNTVYLQMNSLKPEDTAVYYCAAVGVYTYPYDYWGQGTQVTVSS ): high polyreactivity

Please fill in: polyreactivity (PSR sort gate) reported for QVQLVESAGGLVQAGGRLLLSCAASGRIFAKYAMGWYRQAPGKERELVAAIRSTGGGTYYADSVKGRFTISRDNAKNTVYLQMNSLKPEDTAVYYCDARQTYYKYGYWGQGTQVTVSS = high polyreactivity

polyreactivity (PSR sort gate) recorded for this sequence, QVQLVESGGGLVQAGGSLRLSCAASGLTFGTNAMGWYIQAPGKERELVAAISTSSGSTYYADSVKGRFTISRDNAKNTVYLQMNSLKPEDTAVYYCAAVTVTKLSYYRYYYWGQGTQVTVSS , is low polyreactivity

So for QVQLVESGGGLVQAGGSLRLSCAASGSIFKGYAMGWYRQAPGKERELVAANTYSGGGTYYADSVKGRFTISRDNAKNTVYLQMKSLKQEDTAVYYCNADRYYPDDLSDGVGTYDYWGQGTQVSVSS , the logged polyreactivity (PSR sort gate) turned out to be low polyreactivity

Briefly, polyreactivity (PSR sort gate) measured for QDQLVESGGGLVQAGGSLRLSCAASGSIIVRNAMGWYRQAPGKERELVAAISRSGSSTYYADSVKGRFTISRDNAKITVFCQMNSLKPEDTAVYYCAKRRPALRWIYYYWGQGTQVTVSS : high polyreactivity

Recorded polyreactivity (PSR sort gate) (sequence QVQLVESGGGLVQAGGSLRLSCAASGRIFNPNGMGWYRQAPGKERELVAVITRSGTSTYADSVKGRFTISRDNAKNTVYLQMNSLKPEDTAVYYFATRYRWTPYDYWGQGTQVTVSS ): low polyreactivity

polyreactivity (PSR sort gate) reported for this sequence QVQLVESGGGLVQAGGSLRLSCAASGSTFTVNGMGWYRQATGKESELVAAIDGGDGSTYYADSVKGRFTISRDNAKNTVYLQMNSLKPEDTAVYYCAADPPGFTQYGYWGQGTQVTVSS : low polyreactivity

Looking up QVQLVESGGGLVQAGGSLRLSCAASGRTFLVNAMGWYRQAPGKEREFVAAITSRSGRTNYADSVKGRFTISRDNAKNTVYLQSNSLKPEDTAVYYCNAEGYTVKYWYSRYDYWGQGTQVTVSS , I found its polyreactivity (PSR sort gate) recorded as high polyreactivity

# polyreactivity (PSR sort gate) of QVQLVESGGGLVQAGGSLRLSCAASGIIFCRYAMGWYRQAPGKERELVATITWRGGSTYYADSVKGRFTISRDNAKNTVYLQMNSLKPEDTAVYYCAADTRQSRSFRARDYWGQGTQVTVSS = low polyreactivity

----------
assay_info: yeast display, Sf9 membrane polyspecificity reagent, FACS + sequencing; frameworks hold sequencing errors
measured_attribute: polyreactivity (PSR sort gate)

QVQLVESGGGLVQAGGSLRLSCAASGSIFGFYAMGWYRQAPGKERELVASISSSGDSTYYADSVKGRFTISRDNAKNTVYLQINSLKPEDTAVYYCAAVVYDIYGYEFDYWGQGTQVTVSS    low polyreactivity
QVQLVESGGGLVQAGGSLRLSCAASGSIFYYNAMGWSRQAPGKERELVAAIRSTGSSNDADSVKGRFTISRDNAKNTVYLQMNSLKPEDTAVYYCAADQYGRSRDYGYGYWGHGTQVTVSS    low polyreactivity

----------
assay_info: yeast display, Sf9 membrane polyspecificity reagent, FACS + sequencing; frameworks hold sequencing errors
measured_attribute: polyreactivity (PSR sort gate)

Solved cases (4 shown):
QVQLVESGGGLVQAGGSLRLSCAASGRIFWTYAMGWYRQAPGKERELVAAITSGGSTYYADSVKGRVTISRDNAKNTVYLLMNSLKPEDTAVYYCAATSYYYNFMEHDYWGQGTQVTVSS    high polyreactivity
QVQLVESGGGLVQAGGSLRLSCAASGSIFKVNVMGWYRQAPGKERELVAAISRSGGNTYYADSVKGRFTISRDNAKNTVYLQMNSLKPEDTAVYYCATGASYLRRYDHPHSDVDYWGQGTQVTVSS    low polyreactivity
QVQLVESGGGLVQAGGSLRLSCAASGRTFRFYAMGWSRQAPGKERELGAAITGSGGSTYYADSVKGRFTISRDNAKNTVYLQMNCLKPEDTAVYYCAASRWREYHASKMDYWGQGTQVTVSS    low polyreactivity
QVQLVESGGGLVQAGGSLRLSCAASGSIFWRNAMGWYRQAPGKEREFVAAISARGGSTYYADSVKGRFTISRDNAKNTVYLQMNSLKPEDSAVYDCAASWGLGTYSDSTYWGGYYYWGQGTQVTVSS    low polyreactivity

Next sequence, please.
# polyreactivity (PSR sort gate) of QVHLVESGGGLGKAGGSLRLSSAASGRTFQYYTMGWYRQAPGKARELVAAIRRGGSTYYADSVKGRFTISRDNAKNTVYLQMYSLKPEDTAVYYCAALYAYSLTARGMEYWGQGTQVTVSS = high polyreactivity
